tested on: SW579; assay: In vitro MTT (proliferation) assay; type: cell-based; settings: SW579 cell line, thyroid
observable: IC50 (nM)
Supply the numeric figure in nM, leaving out any unit text.

Please review the following examples before continuing.
• COc1cc2c(Oc3ccc4[nH]c(C)cc4c3F)ccnc2cc1OCCN1C[C@H](O)C2(CC2)C1 = 906
• COc1cc2c(Oc3ccc4[nH]c(C)cc4c3F)ccnc2cc1OCCN1CC(O)C2(CC2)C1 (stereo not drawn) = 880

Query string: Using the record for "COc1cc2c(Oc3ccc4[nH]c(C)cc4c3F)ccnc2cc1OCCN1C[C@@H](O)C2(CC2)C1" , state its measured IC50.
Result string: 836

* * *

target: KDR(h) (VEGFr2) (Homo sapiens)
observable: IC50
Just so you know, I need the unit written after the number.

Query string: Lab note: record IC50 of COc1cc2c(Oc3ccc4[nH]c(C)cc4c3F)ccnc2cc1OCCN1CC(O)C2(CC2)C1 (stereo not shown) tested on KDR(h) (VEGFr2) (Homo sapiens).
Result string: 15 nM

* * *

molecular target: Flt1(h) (VEGFr1) (Homo sapiens, UniProt P17948)
Sequence (P17948 27-1338): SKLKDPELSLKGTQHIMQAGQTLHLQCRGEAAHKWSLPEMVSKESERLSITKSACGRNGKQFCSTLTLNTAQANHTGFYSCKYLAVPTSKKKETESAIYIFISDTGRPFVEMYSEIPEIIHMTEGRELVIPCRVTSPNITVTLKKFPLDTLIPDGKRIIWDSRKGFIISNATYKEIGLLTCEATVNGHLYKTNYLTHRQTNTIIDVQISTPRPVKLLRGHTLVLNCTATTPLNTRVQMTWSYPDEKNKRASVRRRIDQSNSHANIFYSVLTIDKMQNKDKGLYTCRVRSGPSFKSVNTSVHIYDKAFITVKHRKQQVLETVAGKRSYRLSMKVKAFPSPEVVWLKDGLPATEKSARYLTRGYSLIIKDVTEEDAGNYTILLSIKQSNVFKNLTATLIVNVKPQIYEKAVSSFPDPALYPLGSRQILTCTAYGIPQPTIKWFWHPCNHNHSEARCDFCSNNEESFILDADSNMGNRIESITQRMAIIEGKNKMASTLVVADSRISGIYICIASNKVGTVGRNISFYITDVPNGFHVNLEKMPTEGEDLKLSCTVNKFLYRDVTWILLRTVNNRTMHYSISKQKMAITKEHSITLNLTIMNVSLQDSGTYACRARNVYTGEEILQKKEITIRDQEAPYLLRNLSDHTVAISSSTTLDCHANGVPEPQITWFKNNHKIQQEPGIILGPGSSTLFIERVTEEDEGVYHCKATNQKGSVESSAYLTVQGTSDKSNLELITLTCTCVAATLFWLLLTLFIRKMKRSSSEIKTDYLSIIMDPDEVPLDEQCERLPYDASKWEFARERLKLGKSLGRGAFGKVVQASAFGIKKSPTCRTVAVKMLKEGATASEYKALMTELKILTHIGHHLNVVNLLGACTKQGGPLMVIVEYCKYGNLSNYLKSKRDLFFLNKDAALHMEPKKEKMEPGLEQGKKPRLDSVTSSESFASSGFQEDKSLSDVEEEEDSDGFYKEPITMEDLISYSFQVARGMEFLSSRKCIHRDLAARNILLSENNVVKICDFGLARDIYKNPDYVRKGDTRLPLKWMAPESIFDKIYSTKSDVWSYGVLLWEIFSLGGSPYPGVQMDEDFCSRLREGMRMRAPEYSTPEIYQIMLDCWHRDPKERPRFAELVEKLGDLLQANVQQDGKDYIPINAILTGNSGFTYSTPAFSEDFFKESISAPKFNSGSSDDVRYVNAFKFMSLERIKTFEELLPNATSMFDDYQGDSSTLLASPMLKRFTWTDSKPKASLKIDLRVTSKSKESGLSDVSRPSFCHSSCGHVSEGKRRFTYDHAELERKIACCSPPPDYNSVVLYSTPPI
observable: pIC50
Scale explanation: pIC50 corresponds to minus log10 of a concentration expressed in moles per litre.

Query string: Give reported pIC50 value for COc1cc2c(Oc3ccc4[nH]c(C)cc4c3F)ccnc2cc1OCCN1CC(O)C2(CC2)C1 (stereo not shown) [Compound A-Xln]
Result string: 8.40

* * *

tested on: U937; assay: In vitro MTT (proliferation) assay; format: cell-based; details: Homo sapiens, U-937, Blood
observable: pIC50
Please note pIC50 is a logarithmic value: minus log10 of concentration in mol/L. Answer with that number alone.

Query string: Please give measured pIC50 of the following entry: COc1cc2c(Oc3ccc4[nH]c(C)cc4c3F)ccnc2cc1OCCN1CC(O)C2(CC2)C1 (stereo not shown) [Compound A-Xln]
Result string: 5.00

* * *

target: FGFR1(h) (Homo sapiens)
Sequence (P11362 22-822): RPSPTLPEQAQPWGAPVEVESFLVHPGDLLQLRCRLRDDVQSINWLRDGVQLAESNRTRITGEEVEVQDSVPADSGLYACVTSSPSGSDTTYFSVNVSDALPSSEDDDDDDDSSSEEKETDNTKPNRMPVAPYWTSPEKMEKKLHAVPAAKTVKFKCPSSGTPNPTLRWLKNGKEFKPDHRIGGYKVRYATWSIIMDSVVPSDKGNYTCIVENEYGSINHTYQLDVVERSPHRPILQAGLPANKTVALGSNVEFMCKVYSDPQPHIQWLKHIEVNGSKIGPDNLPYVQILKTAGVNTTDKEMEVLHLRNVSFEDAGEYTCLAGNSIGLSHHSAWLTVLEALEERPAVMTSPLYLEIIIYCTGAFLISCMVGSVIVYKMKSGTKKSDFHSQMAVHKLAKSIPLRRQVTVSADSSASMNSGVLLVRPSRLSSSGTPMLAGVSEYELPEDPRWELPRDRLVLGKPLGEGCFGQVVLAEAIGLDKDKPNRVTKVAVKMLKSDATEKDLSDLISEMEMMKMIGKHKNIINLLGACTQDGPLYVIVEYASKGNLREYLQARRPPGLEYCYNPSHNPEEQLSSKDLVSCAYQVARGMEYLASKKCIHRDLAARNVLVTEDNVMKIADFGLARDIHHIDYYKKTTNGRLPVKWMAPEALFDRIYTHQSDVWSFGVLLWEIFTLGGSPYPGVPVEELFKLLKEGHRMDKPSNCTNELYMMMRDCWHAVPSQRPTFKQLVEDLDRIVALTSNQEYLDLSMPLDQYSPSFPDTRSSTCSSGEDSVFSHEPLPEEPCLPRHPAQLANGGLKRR
observable: pIC50
Notebook: values listed as pIC50 are -log10 of the concentration (mol/L).

Query string: Supply pIC50 measured with FGFR1(h) (Homo sapiens) for COc1cc2c(Oc3ccc4[nH]c(C)cc4c3F)ccnc2cc1OCCN1CC(O)C2(CC2)C1 (stereo not shown) .
Result string: 8.40

* * *

test system: SKBR3; test: In vitro MTT (proliferation) assay; type: cell-based; conditions: Homo sapiens, SK-BR-3, Breast
observable: pIC50
Conceptually, pIC50 converts a concentration in mol/L into minus its log10.

Query string: Look up and report measured pIC50 for this entry: COc1cc2c(Oc3ccc4[nH]c(C)cc4c3F)ccnc2cc1OCCN1CC(O)C2(CC2)C1 (stereo not shown)
Result string: 4.91

* * *

system: BEL-7402; experiment: In vitro MTT (proliferation) assay; assay type: cell-based; settings: Homo sapiens, Liver
observable: pIC50
Units for pIC50: none; it is -log10 of a concentration expressed in mol/L.

Query string: Complete the entry with pIC50 for COc1cc2c(Oc3ccc4[nH]c(C)cc4c3F)ccnc2cc1OCCN1CC(O)C2(CC2)C1 (stereo not shown)
Result string: 6.07

* * *

system: PANC-1; experiment: In vitro MTT (proliferation) assay; assay type: cell-based; settings: Homo sapiens, PANC-1 cell line, pancreas
Items are presented alongside their recorded pIC50.
Quick note: pIC50 means taking -log10 of the concentration in moles per liter.

• COc1cc2c(Oc3ccc4[nH]c(C)cc4c3F)ccnc2cc1OCCN1C[C@H](O)C2(CC2)C1 [Compound R-A] = 5.25
• COc1cc2c(Oc3ccc4[nH]c(C)cc4c3F)ccnc2cc1OCCN1CC(O)C2(CC2)C1 (stereo not drawn) [Compound A-P-Xln] = 5.56

API: the following record is the query input.
Query string: Answer with the recorded pIC50 for the compound listed here: COc1cc2c(Oc3ccc4[nH]c(C)cc4c3F)ccnc2cc1OCCN1C[C@@H](O)C2(CC2)C1 [Compound S-A]
Result string: 5.30

* * *

molecular target: PDGFRα(h) (Homo sapiens, UniProt P16234)
Sequence (P16234 24-1089): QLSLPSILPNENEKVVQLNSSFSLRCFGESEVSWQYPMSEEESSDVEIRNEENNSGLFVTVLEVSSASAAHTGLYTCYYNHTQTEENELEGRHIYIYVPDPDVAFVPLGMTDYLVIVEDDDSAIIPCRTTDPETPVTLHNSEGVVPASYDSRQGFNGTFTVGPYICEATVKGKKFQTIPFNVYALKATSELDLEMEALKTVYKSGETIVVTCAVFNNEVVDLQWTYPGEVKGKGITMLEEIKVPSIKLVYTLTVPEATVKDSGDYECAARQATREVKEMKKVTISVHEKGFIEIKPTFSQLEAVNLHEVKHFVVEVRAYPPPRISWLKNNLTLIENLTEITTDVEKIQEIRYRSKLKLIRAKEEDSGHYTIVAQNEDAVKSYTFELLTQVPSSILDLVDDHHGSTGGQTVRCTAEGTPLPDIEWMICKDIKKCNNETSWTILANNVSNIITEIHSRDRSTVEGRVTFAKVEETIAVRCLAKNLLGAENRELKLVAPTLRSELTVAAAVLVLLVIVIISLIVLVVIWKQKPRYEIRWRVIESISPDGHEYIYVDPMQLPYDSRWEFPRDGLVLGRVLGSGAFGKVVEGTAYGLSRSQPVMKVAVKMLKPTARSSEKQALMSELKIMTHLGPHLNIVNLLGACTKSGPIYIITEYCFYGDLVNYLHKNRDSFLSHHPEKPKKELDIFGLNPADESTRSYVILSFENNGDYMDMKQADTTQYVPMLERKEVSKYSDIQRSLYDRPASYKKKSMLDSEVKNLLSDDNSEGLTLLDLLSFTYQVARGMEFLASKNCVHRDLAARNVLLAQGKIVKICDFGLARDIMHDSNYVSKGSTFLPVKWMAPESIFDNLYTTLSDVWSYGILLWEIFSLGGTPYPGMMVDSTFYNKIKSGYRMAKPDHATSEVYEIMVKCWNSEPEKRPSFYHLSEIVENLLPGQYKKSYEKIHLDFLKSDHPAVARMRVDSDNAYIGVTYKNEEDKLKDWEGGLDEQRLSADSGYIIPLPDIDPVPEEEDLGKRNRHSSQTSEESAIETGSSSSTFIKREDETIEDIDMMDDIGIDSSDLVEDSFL
observable: pIC50
Expect pIC50 as a plain number equal to -log10 of the molar concentration.

Query string: Enter measured pIC50, system PDGFRα(h) (Homo sapiens, UniProt P16234), for the compound shown: COc1cc2c(Oc3ccc4[nH]c(C)cc4c3F)ccnc2cc1OCCN1CC(O)C2(CC2)C1 (stereo not shown) [Compound A-Xln]
Result string: 6.80

* * *

experiment: Water solubility; type: physicochemical
observable: solubility

Query string: Give solubility for the following compound: COc1cc2c(Oc3ccc4[nH]c(C)cc4c3F)ccnc2cc1OCCN1CC(O)C2(CC2)C1 (stereo not shown) [Compound A-P]
Result string: 360 µg/mL

* * *

target: FGFR3(h) (Homo sapiens, UniProt P22607)
Sequence (P22607 23-806): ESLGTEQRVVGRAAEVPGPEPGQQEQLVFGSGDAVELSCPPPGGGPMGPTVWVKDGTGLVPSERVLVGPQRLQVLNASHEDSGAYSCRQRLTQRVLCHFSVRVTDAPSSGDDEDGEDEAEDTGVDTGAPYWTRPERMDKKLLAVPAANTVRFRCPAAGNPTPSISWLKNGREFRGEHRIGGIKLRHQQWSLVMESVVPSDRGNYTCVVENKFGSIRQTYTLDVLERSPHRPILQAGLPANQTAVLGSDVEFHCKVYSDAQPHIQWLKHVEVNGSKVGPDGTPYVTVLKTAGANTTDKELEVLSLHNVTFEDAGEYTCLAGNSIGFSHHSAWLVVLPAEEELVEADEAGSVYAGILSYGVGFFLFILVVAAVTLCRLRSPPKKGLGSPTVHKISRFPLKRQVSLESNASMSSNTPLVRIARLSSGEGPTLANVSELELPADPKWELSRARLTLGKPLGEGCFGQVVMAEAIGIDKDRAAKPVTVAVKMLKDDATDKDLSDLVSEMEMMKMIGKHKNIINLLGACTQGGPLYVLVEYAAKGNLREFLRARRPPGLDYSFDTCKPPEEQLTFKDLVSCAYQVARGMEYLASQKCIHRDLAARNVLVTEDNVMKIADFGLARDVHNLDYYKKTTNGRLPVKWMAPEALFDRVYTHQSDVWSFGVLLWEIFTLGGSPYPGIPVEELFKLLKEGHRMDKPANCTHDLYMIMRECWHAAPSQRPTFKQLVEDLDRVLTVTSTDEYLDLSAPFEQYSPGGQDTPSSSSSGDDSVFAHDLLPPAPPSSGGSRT
observable: IC50 (nM)
Quick note: give the figure in nM, leave out the unit.

Query string: Find IC50 for COc1cc2c(Oc3ccc4[nH]c(C)cc4c3F)ccnc2cc1OCCN1CC(O)C2(CC2)C1 (stereo not shown) on FGFR3(h) (Homo sapiens, UniProt P22607) and write it down.
Result string: 6

* * *

# IC50 listing for each entry below
test system: SKOV3; test: In vitro MTT (proliferation) assay; type: cell-based; conditions: Homo sapiens, SK-OV-3; SKOV3 cell line, ovary; MTT; read-out: SKOV3 IC50
Unit µM implied. Number only.

Past entries and their recorded results:
• COc1cc2c(Oc3ccc4[nH]c(C)cc4c3F)ccnc2cc1OCCN1C[C@H](O)C2(CC2)C1 = 3.71
• COc1cc2c(Oc3ccc4[nH]c(C)cc4c3F)ccnc2cc1OCCN1CC(O)C2(CC2)C1 (stereo not drawn) = 3.09

Would you kindly look at the next entry?
Query string: Quickly give me recorded IC50 for "COc1cc2c(Oc3ccc4[nH]c(C)cc4c3F)ccnc2cc1OCCN1C[C@@H](O)C2(CC2)C1"
Result string: 7.65

* * *

molecular target: UniProtKB P09619
Sequence (P09619 33-1106): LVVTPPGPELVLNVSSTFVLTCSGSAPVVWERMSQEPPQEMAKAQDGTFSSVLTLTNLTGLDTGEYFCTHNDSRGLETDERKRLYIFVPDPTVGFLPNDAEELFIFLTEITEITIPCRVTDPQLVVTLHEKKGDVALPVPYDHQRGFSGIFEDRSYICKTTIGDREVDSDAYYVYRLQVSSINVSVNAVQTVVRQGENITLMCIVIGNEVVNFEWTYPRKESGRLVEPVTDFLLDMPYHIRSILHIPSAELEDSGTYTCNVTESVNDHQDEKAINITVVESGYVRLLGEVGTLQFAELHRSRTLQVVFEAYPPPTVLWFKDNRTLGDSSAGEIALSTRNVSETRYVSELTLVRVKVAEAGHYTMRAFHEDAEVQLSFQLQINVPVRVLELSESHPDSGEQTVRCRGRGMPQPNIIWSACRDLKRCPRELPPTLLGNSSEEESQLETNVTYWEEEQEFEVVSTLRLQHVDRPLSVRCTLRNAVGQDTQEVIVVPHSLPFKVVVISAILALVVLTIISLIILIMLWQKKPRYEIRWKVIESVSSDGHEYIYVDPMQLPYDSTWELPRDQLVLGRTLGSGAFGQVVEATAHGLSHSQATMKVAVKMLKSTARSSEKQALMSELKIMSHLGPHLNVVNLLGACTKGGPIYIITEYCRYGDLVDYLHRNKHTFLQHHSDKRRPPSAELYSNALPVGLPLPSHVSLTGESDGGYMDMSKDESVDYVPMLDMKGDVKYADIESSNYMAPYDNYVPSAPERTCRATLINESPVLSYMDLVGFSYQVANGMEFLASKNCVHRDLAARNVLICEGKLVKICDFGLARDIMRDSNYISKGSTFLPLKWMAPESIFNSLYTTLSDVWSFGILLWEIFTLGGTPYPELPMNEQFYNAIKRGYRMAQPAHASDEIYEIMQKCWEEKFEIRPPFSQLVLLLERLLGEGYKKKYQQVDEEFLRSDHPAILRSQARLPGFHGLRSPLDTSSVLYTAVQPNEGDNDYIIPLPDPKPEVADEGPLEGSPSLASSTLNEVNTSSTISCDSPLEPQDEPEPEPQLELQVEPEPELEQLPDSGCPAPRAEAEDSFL
observable: pIC50
Worth noting: pIC50 values are minus log10 of concentrations stated in mol/L.

Query string: Write down pIC50 measured for item COc1cc2c(Oc3ccc4[nH]c(C)cc4c3F)ccnc2cc1OCCN1CC(O)C2(CC2)C1 (stereo not shown)
Result string: 7.59

* * *

target: Flt4(h) (VEGFr3) (Homo sapiens, UniProt P35916)
observable: IC50 (nM)
The response must be a number in nM with no trailing unit.

Query string: Lab note: Flt4(h) (VEGFr3) (Homo sapiens, UniProt P35916) assay, enter IC50 for COc1cc2c(Oc3ccc4[nH]c(C)cc4c3F)ccnc2cc1OCCN1CC(O)C2(CC2)C1 (stereo not shown) [Compound A-Xln] here
Result string: 2

* * *

test system: MDA-MB-231; test: In vitro MTT (proliferation) assay; type: cell-based; settings: Homo sapiens; Breast, MDA-MB-231; read-out: IC50
observable: pIC50
The quantity pIC50 is defined as the negative base-10 logarithm of the molar concentration.

Query string: State, in one line, measured pIC50 of COc1cc2c(Oc3ccc4[nH]c(C)cc4c3F)ccnc2cc1OCCN1CC(O)C2(CC2)C1 (stereo not shown) [Compound A-Xln]
Result string: 5.11

* * *

tested on: HL-60; assay: In vitro MTT (proliferation) assay; assay type: cell-based; settings: Homo sapiens, Blood
observable: IC50 (nM)
Give the number; nM is assumed, so skip it.

Query string: Consider the compound COc1cc2c(Oc3ccc4[nH]c(C)cc4c3F)ccnc2cc1OCCN1CC(O)C2(CC2)C1 (stereo not shown) and give its recorded IC50.
Result string: 1980

* * *

The following molecules are listed with their measured pIC50 values.
test system: MDA-MB-231; assay: In vitro MTT (proliferation) assay; assay type: cell-based; settings: Homo sapiens; MDA-MB-231 cell line, breast; MTT; read-out: MDA-MB-231 IC50
Reminder that pIC50 is minus the log10 of a molar concentration.

Look over these answered cases.
• COc1cc2c(Oc3ccc4[nH]c(C)cc4c3F)ccnc2cc1OCCN1CC(O)C2(CC2)C1 (stereo not drawn) [Compound A-P-Xln] = 5.41
• COc1cc2c(Oc3ccc4[nH]c(C)cc4c3F)ccnc2cc1OCCN1C[C@@H](O)C2(CC2)C1 [Compound S-A] = 5.18

# next molecule below
Query string: Given the molecule COc1cc2c(Oc3ccc4[nH]c(C)cc4c3F)ccnc2cc1OCCN1C[C@H](O)C2(CC2)C1 [Compound R-A] , write its reported pIC50.
Result string: 5.02
